Biological target: Mitogen-activated protein kinase 11 (Homo sapiens);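 further: values are mean percent inhibition of p38beta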
Details: at 1 µM
Give true (1) when the value for inhibition is at least 1%. Give false (0) when it is less.

Example entries and their recorded answers appear below.
smiles_input | assigned_label
NS(=O)(=O)c1ccc(N/C=C2\C(=O)Nc3ccc4ncsc4c32)cc1 | true (1)
COc1cccc(COc2cc(-n3cnc4ccccc43)sc2C(N)=O)c1 | true (1)
CCn1c(-c2nonc2N)nc2c(C#CCN)ncc(OCCCN)c21 | false (0)
CCn1c(-c2nonc2N)nc2c(C#CC(C)(C)O)ncc(OC[C@@H]3CCCN3)c21 | true (1)
Nc1nonc1-c1nc2cnccc2n1C1CCCCC1 | false (0)

Answer whether inhibition of CCn1c(-c2nonc2N)nc2c(C#CC(C)(C)O)ncc(OCC3CCNCC3)c21 is greater than or equal to 1%.
true (1)

Answer whether inhibition of CCn1c(-c2nonc2N)nc2c(C#CC(C)(C)O)nc(O[C@@H](CN)c3ccccc3)cc21 is greater than or equal to 1%.
true (1)
